Data origin, for the record: patent US11566007B2

Known pIC50 of a selection of compounds
Molecular target: NRAS Q61R (Homo sapiens (Human), UniProt P01111+P62937, Q61R)
Sequence (P01111 whole entry Q61R): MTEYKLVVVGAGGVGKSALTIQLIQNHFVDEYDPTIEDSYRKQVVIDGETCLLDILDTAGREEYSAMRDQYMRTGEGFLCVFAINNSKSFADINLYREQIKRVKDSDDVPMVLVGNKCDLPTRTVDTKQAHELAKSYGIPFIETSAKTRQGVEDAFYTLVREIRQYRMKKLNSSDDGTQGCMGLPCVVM
Sequence (P62937 whole entry): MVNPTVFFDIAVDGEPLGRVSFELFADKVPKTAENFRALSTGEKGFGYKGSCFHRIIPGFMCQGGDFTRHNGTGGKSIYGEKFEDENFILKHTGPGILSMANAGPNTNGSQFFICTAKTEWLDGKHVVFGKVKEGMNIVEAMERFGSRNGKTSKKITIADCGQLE
Assay: Ras-Raf (BRAF RBD) disruption / FRET / MOA assay, NRAS Q61R
Type: biochemical
Details: NRAS Q61R; Ras-Raf disruption/FRET/MOA assay; read-out: IC50* NRAS Q61R FRET data
Method: The purpose of this biochemical assay is to measure the ability of test compounds to facilitate ternary complex formation between a nucleotide-loaded Ras isoform and cyclophilin A; the resulting ternary complex disrupts binding to a BRAF^RBD construct, inhibiting Ras signaling through a RAF effector. […]. Compound is present in plate wells as a 10-point 3-fold dilution series starting at a final concentration of 30 μM. […]
pIC50: −log10 of the molar value.

- compound: "CCn1c(-c2cccnc2[C@H](C)OC)c2c3cc(ccc31)-c1cccc(c1)CC(NC(=O)[C@H](C(C)C)N1CC[C@]3(CCN(C(=O)C#C[C@@H]4COCCN4C4COC4)C3)C1=O)C(=O)N1CCC[C@H](N1)C(=O)OCC(C)(C)C2 (stereo partly shown)"
  reading: "< 5.00"
- compound: "CCn1c(-c2cccnc2[C@H](C)OC)c2c3cc(ccc31)-c1cccc(c1)C[C@H](NC(=O)[C@H](C(C)C)N(C)C(=O)C1(F)CCN(C(=O)C#CC(C)(C)N(C)C)CC1)C(=O)N1CCC[C@H](N1)C(=O)OCC(C)(C)C2 (atropisomer, axis not shown)"
  reading: "6.00 to 7.00"
- compound: "C=CC(=O)N1CC[C@H](C(=O)N(C)[C@H](C(=O)N[C@H]2Cc3cccc(c3)-c3ccc4c(c3)c(c(-c3cccnc3[C@H](C)OC)n4CC)CC(C)(C)COC(=O)[C@@H]3CCCN(N3)C2=O)C(C)C)[C@H]1C (atropisomer, axis not shown)"
  reading: "5.00 to 6.00"
- compound: "C=CC(=O)N1CC[C@H](C(=O)N(C)[C@H](C(=O)N[C@H]2CC3=NN=C(S3)c3ccc4c(c3)c(c(-c3cccnc3[C@H](C)OC)n4CC)CC(C)(C)COC(=O)[C@@H]3CCCN(N3)C2=O)C(C)C)C1 (atropisomer, axis not shown)"
  reading: "< 5.00"
- compound: "CCn1c(-c2cccnc2[C@H](C)OC)c2c3cc(ccc31)N1CCC[C@@H](C[C@H](NC(=O)[C@H](C(C)C)N(C)C(=O)[C@H]3CCN(C(=O)C#CC(C)(C)N4CCC4)C3)C(=O)N3CCC[C@H](N3)C(=O)OCC(C)(C)C2)C1 (atropisomer, axis not shown)"
  reading: "< 5.00"

[Q] # query: pIC50 | item C=CC(=O)N1CCOC2(CCN(C(=O)N(C)[C@H](C(=O)N[C@H]3Cc4nsc(n4)-c4ccc5c(c4)c(c(-c4cccnc4[C@H](C)OC)n5CC)CC(C)(C)COC(=O)[C@@H]4CCCN(N4)C3=O)C(C)C)CC2)C1 (atropisomer, axis not shown) | system: NRAS Q61R (Homo sapiens (Human), UniProt P01111+P62937, Q61R)
[A] 6.00 to 7.00

[Q] What about this compound? C=CC(=O)N1CCN(C(=O)N(C)[C@H](C(=O)N[C@H]2Cc3nc(cs3)-c3ccc4c(c3)c(c(-c3cccnc3[C@H](C)OC)n4CC)CC(C)(C)COC(=O)[C@@H]3CCCN(N3)C2=O)C(C)C)[C@H]2CC[C@H]21 (atropisomer, axis not shown)
[A] 7.00 to 8.00
